These measurements were taken from PubChem BioAssay AID743126.

- TARGET_DESC: Group 3 secretory phospholipase A2 (Homo sapiens)
- ASSAY_DETAILS: human group III sPLA2 inhibitors, primary screen, biochemical, QFRET, BODIPY PC-A2 liposome substrate (AID 743126);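 further: 0% = median of test compound wells and 100% = no enzyme DMSO wells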
- EXPERIMENTAL_CONTEXT: QFRET BODIPY PC-A2 liposome hydrolysis, fluorescence; at 12.2 µM
Among all 370,000 compounds or so, about 2,100 (0.57%) were called active.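 How the source made its calls: active means inhibition above mean plus 3 SD of compounds lying within the high and low control bounds (cut at about 19% in these data); inactive means the rest.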 The full list was thinned out, with actives kept by preference.
A correct response names exactly one class from active, inactive

Consider the following illustrative entries.
COMPOUND: Cc1ccc(C(=O)N(Cc2ccccn2)CC2CCCO2)cc1 (centres undefined)
ASSIGNED_LABEL: inactive
--
COMPOUND: O=S(=O)(NC1CC2CCC1C2)c1ccc(Cl)cc1 (centres undefined)
ASSIGNED_LABEL: inactive
--
COMPOUND: COC(=O)C[C@H]1CC[C@H]2[C@H](COc3ccc(NC(=O)C4CC4)cc3C(=O)N2C)O1
ASSIGNED_LABEL: inactive

Lookup: Test call for this compound, please: CCCCOC(=O)CCCc1ccc([N+](=O)[O-])cc1[N+](=O)[O-]
Found: inactive

----------
- TARGET_DESC: Group 3 secretory phospholipase A2 (Homo sapiens) (UniProt Q9NZ20)
- Sequence (Q9NZ20 whole entry, looked up): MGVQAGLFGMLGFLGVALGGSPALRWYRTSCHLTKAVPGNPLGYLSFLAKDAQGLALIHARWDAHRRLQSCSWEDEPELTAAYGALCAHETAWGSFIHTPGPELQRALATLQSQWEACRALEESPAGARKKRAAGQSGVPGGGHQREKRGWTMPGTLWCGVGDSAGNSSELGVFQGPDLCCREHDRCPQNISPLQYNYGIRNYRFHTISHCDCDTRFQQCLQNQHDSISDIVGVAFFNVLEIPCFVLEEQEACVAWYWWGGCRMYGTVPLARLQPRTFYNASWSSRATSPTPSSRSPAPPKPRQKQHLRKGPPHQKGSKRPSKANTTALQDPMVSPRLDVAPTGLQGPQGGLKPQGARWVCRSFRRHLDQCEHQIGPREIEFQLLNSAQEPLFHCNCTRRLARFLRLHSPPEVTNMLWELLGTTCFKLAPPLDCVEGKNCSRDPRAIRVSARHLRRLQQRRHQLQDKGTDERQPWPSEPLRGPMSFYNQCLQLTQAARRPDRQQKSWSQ
- ASSAY_DETAILS: human group III sPLA2 inhibitors, primary screen, biochemical, QFRET, BODIPY PC-A2 liposome substrate (AID 743126);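 further: 0% = median of test compound wells and 100% = no enzyme DMSO wells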
- EXPERIMENTAL_CONTEXT: QFRET BODIPY PC-A2 liposome hydrolysis, fluorescence; at 12.2 µM
Among all 370,000 compounds or so, about 2,100 (0.57%) were called active.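 The calls were made as follows: active = inhibition above mean plus 3 SD of compounds lying within the high and low control bounds (cut at about 19% in these data); inactive = the rest.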 This excerpt belongs to a sample that is enriched for actives.
# valid calls are active, inactive; nothing else

Before answering, review these 3 worked examples.
MOLECULE: COc1ccc(N2CCN(CCNS(=O)(=O)c3ccc(Cl)s3)CC2)cc1
ASSIGNED_LABEL: inactive
--
MOLECULE: CSc1ccc(C=Nn2c(-c3ccc(F)cc3)n[nH]c2=S)cc1
ASSIGNED_LABEL: inactive
--
MOLECULE: COC(CNC(=O)[C@H](Cc1ccccc1)NC1(C(=O)NC2CCCCC2)CCCCC1)OC
ASSIGNED_LABEL: inactive

Lookup: Record request — test call for O=C(N/N=C1\CCSC1)c1cc(Cl)ccc1O
Found: inactive

----------
As shown below, each of these compounds has a reported inhibition value.
- TARGET_DESC: Group 3 secretory phospholipase A2 (Homo sapiens)
- ASSAY_DETAILS: human group III sPLA2 inhibitors, primary screen, biochemical, QFRET, BODIPY PC-A2 liposome substrate (AID 743126);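 further: 0% = median of test compound wells and 100% = no enzyme DMSO wells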
- EXPERIMENTAL_CONTEXT: QFRET BODIPY PC-A2 liposome hydrolysis, fluorescence; at 12.2 µM; active compounds read high
Among all 370,000 compounds or so, about 2,100 (0.57%) were called active. What follows is part of a selection rich in actives, with near analogues and random picks from the rest.
Give a bare numeral; the unit % is implied.

Examples from the recorded data:
COMPOUND: CC1CCN(C(=S)NC2CC3CCC2C3)CC1 (stereo not given)
inhibition (%): 14.4
//
COMPOUND: COc1ccccc1OCC(=O)OCn1c(SC)nnc(C)c1=O
inhibition (%): 21.3
//
COMPOUND: COc1ccnc(C(=O)N2CCC(Oc3cccnc3)CC2)c1
inhibition (%): 3.64

The observed inhibition for C[C@H]1CCC/C=C/C(=O)c2c(O)cc(O)cc2CC(=O)O1 when tested with Group 3 secretory phospholipase A2 (Homo sapiens) stands at 4.76

Form: item S=C(NNC(=S)NC1CC2CCC1C2)NC1CC2C=CC1C2 (stereo not given) ; test system Group 3 secretory phospholipase A2 (Homo sapiens); inhibition: 19.5

Form: item CC(C)c1cc(N=O)cc(C(C)C)c1O ; test system Group 3 secretory phospholipase A2 (Homo sapiens); inhibition: -42.9

inhibition for Group 3 secretory phospholipase A2 (Homo sapiens) with input CCCCCCCCNS(=O)(=O)/C=C/c1cc(C)ccc1CNC(=O)OC(C)(C)C equals -4.97

Item: CCCCOc1ccc(CSC(=N)N)cc1[N+](=O)[O-] | System: Group 3 secretory phospholipase A2 (Homo sapiens) | inhibition: 34.6

Response field inhibition (Group 3 secretory phospholipase A2 (Homo sapiens)) for item C[C@H](C(=O)N(C)c1ccccc1)[C@@H](O)c1ccc(Cl)cc1 : -2.63

inhibition value, target or system Group 3 secretory phospholipase A2 (Homo sapiens), for CCC(=O)Nc1ccc2c(c1)C(=O)N(C)[C@@H]1CC[C@@H](CC(=O)NCCc3ccccc3)O[C@H]1CO2 : 4.64

Summary line: CC(C)(C)c1ccc(CSc2nnc(-c3cccs3)o2)cc1 , Group 3 secretory phospholipase A2 (Homo sapiens), reported inhibition = -0.56

// compound CC(=O)O[C@H]1c2ccccc2-c2ccccc2[C@@H]1OC(C)=O , assay Group 3 secretory phospholipase A2 (Homo sapiens), inhibition value: 1.14

----------
- TARGET_DESC: Group 3 secretory phospholipase A2 (Homo sapiens)
- ASSAY_DETAILS: human group III sPLA2 inhibitors, primary screen, biochemical, QFRET, BODIPY PC-A2 liposome substrate (AID 743126);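 further: 0% = median of test compound wells and 100% = no enzyme DMSO wells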
- EXPERIMENTAL_CONTEXT: QFRET BODIPY PC-A2 liposome hydrolysis, fluorescence; at 12.2 µM; active compounds read high
About 2,100 (0.57%) of roughly 370,000 compounds were called active. The full list was thinned out, with actives kept by preference.
ATTRIBUTE_MEASURED: inhibition

Use the examples below as a reference point.
MOLECULE: CC(=O)OCCN1CCCC12CCC(c1ccccc1)CC2 (configuration not stated)
RESULT: 11.1% (inactive)
--
MOLECULE: CCOC(=O)C1(Cc2cccc(OC)c2)CCCN(C(=O)CCSC)C1 (configuration not stated)
RESULT: 19.5% (active)
--
MOLECULE: O=C1CCC2(CCC(c3ccc(Cl)cc3)CC2)N1CCO (configuration not stated)
RESULT: 7.89% (inactive)
--
MOLECULE: Cc1nc(NC(=O)c2ccc3c(c2)OCCO3)ccc1Br
RESULT: 4.96% (inactive)
--
MOLECULE: COc1ccc(C(=O)NC(=S)NNC(=O)c2c(-c3ccccc3)noc2C)cc1
RESULT: 19.5% (active)

Data point: CCOC(=O)N1CCN(C(=O)C[C@@H]2C(=O)N(CCc3ccc(Cl)cc3)C3=CCCC[C@]32C(=O)OCC)CC1 ; inhibition = -8.77% (inactive)

The reported inhibition of the molecule COc1ccc(CSc2nnc(-c3cccc(C)c3)n2C)cc1 was 11.9% (inactive)

----------
- TARGET_DESC: Group 3 secretory phospholipase A2 (Homo sapiens) (UniProt Q9NZ20)
- ASSAY_DETAILS: human group III sPLA2 inhibitors, primary screen, biochemical, QFRET, BODIPY PC-A2 liposome substrate (AID 743126);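 further: 0% = median of test compound wells and 100% = no enzyme DMSO wells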
- EXPERIMENTAL_CONTEXT: QFRET BODIPY PC-A2 liposome hydrolysis, fluorescence; at 12.2 µM; active compounds read high
Among all 370,000 compounds or so, about 2,100 (0.57%) were called active. This is one part of a sample in which actives are shown more often than they occur.
# inhibition per entry
Enter your answer as a number in %; do not include the unit.

Please review the following examples before continuing.
COMPOUND: CC(C)=C1C2CCC1C1C(=O)N(NC(=O)c3ccco3)C(=O)C21 (stereo not drawn)
inhibition [%]: 0.15
--
COMPOUND: O=C(CSc1nc2sc3c(c2c(=O)n1-c1ccccc1)CCCC3)NN=Cc1ccc(OCc2ccccc2)cc1
inhibition [%]: -1.3
--
COMPOUND: COc1ccc(Cn2cc(CN3[C@@H](CC(C)C)COc4cc(Br)ccc4S3(=O)=O)nn2)cc1
inhibition [%]: 6.77

Known value: Group 3 secretory phospholipase A2 (Homo sapiens) (UniProt Q9NZ20) inhibition of the compound O=C(NCCCNC(=O)NC1CCCCC1)NC1CCCCC1 equals 6.47

With Group 3 secretory phospholipase A2 (Homo sapiens) (UniProt Q9NZ20) as the test system, CC(C)c1cc(C(=O)N/N=C/c2ccoc2)c(O)c(C(C)C)c1 showed inhibition of 22.1

Field inhibition (system: Group 3 secretory phospholipase A2 (Homo sapiens) (UniProt Q9NZ20)) for entry O=S1(=O)c2ccc(Br)cc2OC[C@@H](Cc2ccccc2)N1Cc1cn(Cc2ccco2)nn1 = -4.54

inhibition on Group 3 secretory phospholipase A2 (Homo sapiens) (UniProt Q9NZ20) for O=C(NN1C(=O)C2C3C=CC(C3)C2C1=O)c1ccco1 (stereo not drawn) is 22.3

Group 3 secretory phospholipase A2 (Homo sapiens) (UniProt Q9NZ20) assay, compound C=C(C)C#CC(Cc1ccccc1)N(CC1CC1)/C(N)=N/C(=O)OCc1ccccc1 (stereo not drawn) , recorded inhibition = 7.88

Observed inhibition on Group 3 secretory phospholipase A2 (Homo sapiens) (UniProt Q9NZ20), entry COC(=O)C(C)n1cnc2c(nnn2-c2ccc(F)cc2)c1=O (stereo not drawn) , equals 21.6
